The reported numbers originate from patent US6423689B1.

# reported Inhibition of Calcium Flux in IMR-32 Cells % Inhibition at 10 μM; entries follow
molecular target: N-type Ca2+ channels in IMR-32 cells (Homo sapiens, UniProt Q00975); construct: host or cells: IMR-32 cells, differentiated with dibutyryl cAMP and bromodeoxyuridine; assay: Inhibition of N-type calcium flux in IMR-32 cells (Indo-1 fluorescence, nitrendipine present); assay type: cell-based; conditions: 10 μM
Sequence (Q00975 whole entry): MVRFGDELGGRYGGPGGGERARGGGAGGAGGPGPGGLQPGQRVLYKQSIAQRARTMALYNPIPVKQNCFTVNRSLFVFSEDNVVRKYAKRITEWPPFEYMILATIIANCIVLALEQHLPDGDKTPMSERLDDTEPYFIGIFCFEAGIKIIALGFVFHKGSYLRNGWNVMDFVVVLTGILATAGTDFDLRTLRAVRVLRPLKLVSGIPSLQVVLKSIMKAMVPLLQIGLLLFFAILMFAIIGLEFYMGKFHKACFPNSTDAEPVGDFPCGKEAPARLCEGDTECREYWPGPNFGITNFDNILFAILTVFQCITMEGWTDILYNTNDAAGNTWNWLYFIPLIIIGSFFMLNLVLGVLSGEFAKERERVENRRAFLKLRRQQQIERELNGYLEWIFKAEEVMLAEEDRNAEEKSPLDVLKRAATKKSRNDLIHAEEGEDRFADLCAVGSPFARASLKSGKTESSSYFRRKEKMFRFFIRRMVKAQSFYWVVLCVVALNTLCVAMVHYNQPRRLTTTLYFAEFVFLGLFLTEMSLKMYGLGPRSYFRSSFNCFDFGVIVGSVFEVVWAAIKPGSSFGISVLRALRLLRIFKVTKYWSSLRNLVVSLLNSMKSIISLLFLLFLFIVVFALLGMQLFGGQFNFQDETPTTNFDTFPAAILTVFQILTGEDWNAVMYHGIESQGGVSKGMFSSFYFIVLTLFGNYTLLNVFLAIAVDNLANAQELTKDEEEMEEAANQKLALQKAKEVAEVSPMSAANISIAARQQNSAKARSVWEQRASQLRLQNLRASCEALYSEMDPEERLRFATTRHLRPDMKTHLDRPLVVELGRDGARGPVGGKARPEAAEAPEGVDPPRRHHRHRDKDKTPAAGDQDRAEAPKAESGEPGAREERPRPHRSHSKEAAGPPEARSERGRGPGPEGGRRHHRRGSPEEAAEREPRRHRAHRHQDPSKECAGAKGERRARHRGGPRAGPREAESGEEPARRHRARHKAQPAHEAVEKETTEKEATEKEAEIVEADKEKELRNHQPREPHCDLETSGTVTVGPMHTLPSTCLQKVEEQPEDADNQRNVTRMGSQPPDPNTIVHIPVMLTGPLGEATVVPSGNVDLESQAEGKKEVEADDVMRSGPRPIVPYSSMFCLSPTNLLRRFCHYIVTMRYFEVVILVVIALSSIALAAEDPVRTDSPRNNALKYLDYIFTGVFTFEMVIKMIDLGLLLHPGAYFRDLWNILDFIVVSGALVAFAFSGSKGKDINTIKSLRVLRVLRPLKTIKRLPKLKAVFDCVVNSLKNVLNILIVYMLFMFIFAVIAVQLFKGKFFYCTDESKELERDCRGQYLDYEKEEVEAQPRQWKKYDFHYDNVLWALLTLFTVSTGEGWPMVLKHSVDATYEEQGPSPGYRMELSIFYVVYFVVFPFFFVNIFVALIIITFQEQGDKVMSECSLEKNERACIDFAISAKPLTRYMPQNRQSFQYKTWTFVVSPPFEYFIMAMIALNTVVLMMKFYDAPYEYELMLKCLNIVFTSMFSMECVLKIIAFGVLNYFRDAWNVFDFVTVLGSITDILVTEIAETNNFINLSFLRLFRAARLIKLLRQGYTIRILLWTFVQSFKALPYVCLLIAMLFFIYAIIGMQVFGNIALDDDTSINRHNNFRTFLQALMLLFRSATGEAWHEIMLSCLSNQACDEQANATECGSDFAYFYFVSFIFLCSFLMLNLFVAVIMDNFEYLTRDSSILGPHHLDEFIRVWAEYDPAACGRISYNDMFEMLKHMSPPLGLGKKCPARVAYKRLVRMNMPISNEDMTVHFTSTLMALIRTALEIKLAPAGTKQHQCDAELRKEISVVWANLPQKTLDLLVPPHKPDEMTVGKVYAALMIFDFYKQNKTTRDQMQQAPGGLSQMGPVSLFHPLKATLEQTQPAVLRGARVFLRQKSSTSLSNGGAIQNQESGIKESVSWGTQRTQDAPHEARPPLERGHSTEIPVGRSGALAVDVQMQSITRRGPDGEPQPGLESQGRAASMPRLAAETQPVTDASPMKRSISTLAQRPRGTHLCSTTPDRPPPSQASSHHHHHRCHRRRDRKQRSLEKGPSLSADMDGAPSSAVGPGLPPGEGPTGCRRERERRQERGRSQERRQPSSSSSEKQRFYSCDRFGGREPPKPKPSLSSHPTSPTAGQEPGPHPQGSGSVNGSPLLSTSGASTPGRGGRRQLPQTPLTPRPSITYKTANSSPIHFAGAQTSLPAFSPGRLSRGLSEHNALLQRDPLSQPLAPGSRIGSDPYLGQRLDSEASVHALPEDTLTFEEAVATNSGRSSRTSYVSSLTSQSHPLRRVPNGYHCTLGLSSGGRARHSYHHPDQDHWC
Sequence (P54289 25-956 partner limits assumed): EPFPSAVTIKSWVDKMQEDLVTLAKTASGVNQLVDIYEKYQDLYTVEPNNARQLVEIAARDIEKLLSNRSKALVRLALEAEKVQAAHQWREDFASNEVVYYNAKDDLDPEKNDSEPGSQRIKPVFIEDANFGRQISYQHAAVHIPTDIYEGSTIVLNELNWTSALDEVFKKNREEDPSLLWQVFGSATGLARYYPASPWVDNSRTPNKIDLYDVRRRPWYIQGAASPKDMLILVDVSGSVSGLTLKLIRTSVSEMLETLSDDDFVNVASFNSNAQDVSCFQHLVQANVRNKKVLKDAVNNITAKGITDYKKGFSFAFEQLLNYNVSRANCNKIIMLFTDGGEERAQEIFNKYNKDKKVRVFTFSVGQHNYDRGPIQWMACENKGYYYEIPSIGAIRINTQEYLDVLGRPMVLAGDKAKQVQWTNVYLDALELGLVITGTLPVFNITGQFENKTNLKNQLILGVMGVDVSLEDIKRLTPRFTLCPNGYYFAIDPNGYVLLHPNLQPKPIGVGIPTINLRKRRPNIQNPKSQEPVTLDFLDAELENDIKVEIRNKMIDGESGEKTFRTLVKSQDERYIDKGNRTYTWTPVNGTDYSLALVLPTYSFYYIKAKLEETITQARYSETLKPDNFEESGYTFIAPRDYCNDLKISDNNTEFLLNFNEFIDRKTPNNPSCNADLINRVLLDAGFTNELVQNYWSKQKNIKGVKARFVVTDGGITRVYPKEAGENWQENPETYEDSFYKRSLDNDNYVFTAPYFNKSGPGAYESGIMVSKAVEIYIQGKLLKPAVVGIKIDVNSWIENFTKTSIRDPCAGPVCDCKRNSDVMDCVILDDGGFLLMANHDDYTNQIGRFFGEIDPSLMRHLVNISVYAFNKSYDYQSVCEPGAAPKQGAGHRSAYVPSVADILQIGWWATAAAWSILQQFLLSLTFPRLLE
Sequence (P54289 957-1103 partner limits assumed): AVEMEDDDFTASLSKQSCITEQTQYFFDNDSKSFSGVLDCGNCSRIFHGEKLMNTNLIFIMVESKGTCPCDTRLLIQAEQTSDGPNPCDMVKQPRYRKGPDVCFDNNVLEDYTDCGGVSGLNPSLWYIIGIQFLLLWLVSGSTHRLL
Sequence (P54284 whole entry partner): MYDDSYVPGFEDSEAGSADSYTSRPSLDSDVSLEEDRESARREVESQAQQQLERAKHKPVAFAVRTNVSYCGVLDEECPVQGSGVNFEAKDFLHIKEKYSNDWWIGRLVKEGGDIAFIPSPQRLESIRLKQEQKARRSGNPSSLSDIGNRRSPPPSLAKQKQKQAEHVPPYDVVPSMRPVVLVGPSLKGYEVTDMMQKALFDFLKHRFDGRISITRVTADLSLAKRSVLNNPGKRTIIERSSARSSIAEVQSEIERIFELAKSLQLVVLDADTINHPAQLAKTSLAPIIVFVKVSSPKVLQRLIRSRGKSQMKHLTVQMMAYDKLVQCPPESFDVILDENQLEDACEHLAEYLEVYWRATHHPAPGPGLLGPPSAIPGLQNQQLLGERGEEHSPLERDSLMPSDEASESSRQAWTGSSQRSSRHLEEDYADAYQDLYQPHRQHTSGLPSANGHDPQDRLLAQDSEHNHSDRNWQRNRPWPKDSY
Just the number please, in %, no unit attached.

[
  {
    "molecule": "COc1cccc(NC(=O)N[C@@H](CC(C)C)C(=O)N[C@@H](Cc2ccc(OCc3ccccc3)cc2)C(=O)OC(C)(C)C)c1 (relative stereo) [Example 57]",
    "reported-value": 74
  }
]

# return recorded Inhibition of Calcium Flux in IMR-32 Cells % Inhibition at 10 μM for entry CC(C)C[C@H](NC(=O)N1CCCCCC1)C(=O)N[C@@H](Cc1ccc(OCc2ccccc2)cc1)C(=O)NC(CO)CO (relative stereo) [Example 257]
90

Given the molecule CC(C)C[C@H](NC(=O)N1CCCCCC1)C(=O)N[C@@H](Cc1ccc(OCc2ccccc2)cc1)C(=O)Nc1ccc(N(C)C)cc1 (relative stereo) [Example 215] , write its reported Inhibition of Calcium Flux in IMR-32 Cells % Inhibition at 10 μM.
44

Provide only the value of recorded Inhibition of Calcium Flux in IMR-32 Cells % Inhibition at 10 μM for CC(C)C[C@H](NS(=O)(=O)c1ccc2cccnc2c1)C(=O)N[C@@H](Cc1ccc(OCc2ccccc2)cc1)C(=O)OC(C)(C)C (relative stereo) [Example 109]
56

====

Catalogue of inhibition at 10 µM values
target: N-type Ca2+ channels in IMR-32 cells (Homo sapiens, UniProt Q00975); construct: host or cells: IMR-32 cells, differentiated with dibutyryl cAMP and bromodeoxyuridine; assay: Inhibition of N-type calcium flux in IMR-32 cells (Indo-1 fluorescence, nitrendipine present); format: cell-based; conditions: IMR-32
Numeric answer only, unit % assumed.

# count of solved cases: 2
[
  {
    "compound": "CC(C)C[C@H](NC(=O)N1CCCCCC1)C(=O)N[C@@H](Cc1ccc(OCc2ccccc2)cc1)C(=O)N1CCN(C)CC1 [Example 176]",
    "inhibition at 10 µM, %": 86
  },
  {
    "compound": "CC(C)CC(NC(=O)N1CCCCCC1)C(=O)NC(Cc1ccc(OCc2ccccc2)cc1)C(=O)N1CCCC(C)C1 (centres unmarked) [Example 200]",
    "inhibition at 10 µM, %": 88
  }
]

Return inhibition at 10 µM for the following compound: CC(C)C[C@H](NC(=O)N1CCCCCC1)C(=O)N[C@@H](Cc1ccc(OCc2ccccc2)cc1)C(=O)NC1CCCCCC1 [Example 208]
81

Report inhibition at 10 µM, nothing else, for this compound: CC(C)C[C@H](NC(=O)N1CCCCCC1)C(=O)N[C@@H](Cc1ccc(OCc2ccccc2)cc1)C(=O)Nc1ccc(CCO)cc1 [Example 211]
81

Report measured inhibition at 10 µM; entry is CC(C)C[C@H](NC(=O)N1CCCCCC1)C(=O)N[C@@H](Cc1ccc(C#CC2(O)CCCCC2)cc1)C(=O)NC(C)(C)C [Example 138]
67

====

target: N-type Ca2+ channels in IMR-32 cells (Homo sapiens, UniProt Q00975); construct: host or cells: IMR-32 cells, differentiated with dibutyryl cAMP and bromodeoxyuridine; assay: Inhibition of N-type calcium flux in IMR-32 cells (Indo-1 fluorescence, nitrendipine present); format: cell-based; details: IMR-32 cells, 5 μM nitrendipine, K+ depolarization
Measured pIC50, listed per entry.
Schema: pIC50 number; meaning minus log10 of the concentration expressed in molar units.

[
  {
    "compound": "CC(C)C[C@H](NC(=O)N1CCCCCC1)C(=O)N[C@@H](Cc1ccc(OCc2ccccc2)cc1)C(=O)NCCc1c[nH]cn1",
    "readout-label": "pIC50",
    "reported-value": 5.64
  },
  {
    "compound": "CC(C)C[C@H](NC(=O)N1CCCCCC1)C(=O)N[C@@H](Cc1ccc(OCc2ccccc2)cc1)C(=O)N1CCC(N2CCCCC2)CC1",
    "readout-label": "pIC50",
    "reported-value": 5.64
  },
  {
    "compound": "CC(C)C[C@H](NC(=O)N1CCCCCC1)C(=O)N[C@@H](Cc1ccc(OCc2ccccc2)cc1)C(=O)NCC1CC1",
    "readout-label": "pIC50",
    "reported-value": 5.77
  }
]

Please examine the following record next.
Retrieve pIC50 on N-type Ca2+ channels in IMR-32 cells (Homo sapiens, UniProt Q00975); query CC(C)C[C@H](NC(=O)N1CCCCCC1)C(=O)N[C@@H](Cc1ccc(OCc2ccccc2)cc1)C(=O)c1cc[nH]n1 (relative stereo)
5.70

====

We begin with a simple list: items and their reported responders at 30 mg/kg.
tested on: DBA/2 mice; experiment: animal or person; assay type: in vivo; conditions: Mus musculus, iv, 0.25 h, read-out: Number of Mice Protected from Tonic Convulsions
Just the number please, in %, no unit attached.

Examples with their reported responders at 30 mg/kg follow.
[
  {
    "compound": "CC(C)C[C@H](NC(=O)N1CCCCCC1)C(=O)N[C@@H](Cc1ccc(OCc2ccccn2)cc1)C(=O)OC(C)(C)C [Example 25]",
    "responders at 30 mg/kg, %": 100
  },
  {
    "compound": "CC(C)C[C@H](NC(=O)N1CCCCCC1)C(=O)N[C@@H](Cc1ccc(OCc2ccccc2)cc1)C(=O)NCCc1ccccn1 [Example 231]",
    "responders at 30 mg/kg, %": 0
  },
  {
    "compound": "CC(C)C[C@H](NC(=O)N1CCCCCC1)C(=O)N[C@@H](Cc1ccc(OCc2ccccc2)cc1)C(=O)NC1CCN(Cc2ccccc2)C1 (stereo in doubt) [Example 183]",
    "responders at 30 mg/kg, %": 100
  }
]

Fill in responders at 30 mg/kg for record CC(C)CC(NC(=O)N1CCCCCC1)C(=O)NC(Cc1ccc(OCc2ccccc2)cc1)C(=O)NC(CO)C(C)C (stereo not shown) [Example 253]
0

====

Biological target: N-type Ca2+ channels in superior cervical ganglion (SCG) neurons (Rattus norvegicus, UniProt Q02294)
Construct: from tissue
Test: Whole-cell voltage clamp, N-type Ca2+ current in SCG neurons
Assay type: cell-based
Conditions: 10 μM
Description: Electrophysiological techniques were used to measure the effects of experimental compounds on voltage-gated Ca^2+, Na^+ and K^+ channels. […] Sodium and potassium channel currents were measured from acutely dissociated SCG neurons. […]
Classify by measured inhibition at 10 µM: t if it is equal to or exceeds 70%, f if it is smaller.

Does the compound CC(C)C[C@H](NC(=O)N1CCCCCC1)C(=O)N[C@@H](Cc1ccc(OCc2ccccn2)cc1)C(=O)OC(C)(C)C [Example 25] have recorded inhibition at 10 µM that is 70% or more?
f

Test whether the compound CC(C)C[C@H](NC(=O)N1CCCCCC1)C(=O)N[C@@H](Cc1ccc(OCC2CCCCC2)cc1)C(=O)OC(C)(C)C [Example 30] records inhibition at 10 µM of 70% or higher.
f

====

target: L-type Ca2+ channels in A10 cells (Rattus norvegicus, UniProt P22002); construct: which endogenously expresses L-type calcium channels; assay: Inhibition of L-type calcium flux in A10 cells (FLIPR)
Could you please mark label 1 for values of IC50 below 400 nM and label 0 for values at or above it?

Before answering, review these 9 worked examples.
[
  {
    "compound": "CC(C)C[C@H](NC(=O)N1CCCCCC1)C(=O)N[C@@H](Cc1ccc(C#CCN2CCS(=O)(=O)CC2)cc1)C(=O)NC(C)(C)C",
    "target": "L-type Ca2+ channels in A10 cells (Rattus norvegicus, UniProt P22002)",
    "category": "label 0"
  },
  {
    "compound": "CC(C)C[C@H](NC(=O)N1CCCCCC1)C(=O)N[C@@H](Cc1ccc(OCc2ccccc2)cc1)C(=O)NCCN1CCCCC1",
    "target": "L-type Ca2+ channels in A10 cells (Rattus norvegicus, UniProt P22002)",
    "category": "label 1"
  },
  {
    "compound": "CC(C)C[C@H](NC(=O)N1CCCCCC1)C(=O)N[C@@H](Cc1ccc(OCc2ccccc2)cc1)C(=O)NCCc1ccccn1",
    "target": "L-type Ca2+ channels in A10 cells (Rattus norvegicus, UniProt P22002)",
    "category": "label 0"
  },
  {
    "compound": "CC(C)C[C@H](NC(=O)N1CCCCCC1)C(=O)N[C@@H](Cc1ccc(C#CC(C)(C)C)cc1)C(=O)NC(C)(C)C",
    "target": "L-type Ca2+ channels in A10 cells (Rattus norvegicus, UniProt P22002)",
    "category": "label 0"
  },
  {
    "compound": "CC(C)C[C@H](NC(=O)N1CCCCCC1)C(=O)N[C@@H](Cc1ccc(OCc2ccccc2)cc1)C(=O)NC1CCN(Cc2ccccc2)C1 (stereo in doubt)",
    "target": "L-type Ca2+ channels in A10 cells (Rattus norvegicus, UniProt P22002)",
    "category": "label 1"
  },
  {
    "compound": "CC(C)C[C@H](NC(=O)N1CCCCCC1)C(=O)N[C@@H](Cc1ccc(CCCN2CCS(=O)(=O)CC2)cc1)C(=O)NC(C)(C)C",
    "target": "L-type Ca2+ channels in A10 cells (Rattus norvegicus, UniProt P22002)",
    "category": "label 0"
  },
  {
    "compound": "CC(C)C[C@H](NC(=O)N1CCCCCC1)C(=O)N[C@@H](Cc1ccc(OCc2ccccn2)cc1)C(=O)OC(C)(C)C",
    "target": "L-type Ca2+ channels in A10 cells (Rattus norvegicus, UniProt P22002)",
    "category": "label 0"
  },
  {
    "compound": "CC(C)(C)OC(=O)[C@H](Cc1ccc(OCc2ccccc2)cc1)NC(=O)CNC(=O)N1CCCCCC1 (stereo in doubt)",
    "target": "L-type Ca2+ channels in A10 cells (Rattus norvegicus, UniProt P22002)",
    "category": "label 1"
  },
  {
    "compound": "CC(C)C[C@H](NS(=O)(=O)c1ccc(C(C)(C)C)cc1)C(=O)N[C@@H](Cc1ccc(OCc2ccccc2)cc1)C(=O)OC(C)(C)C",
    "target": "L-type Ca2+ channels in A10 cells (Rattus norvegicus, UniProt P22002)",
    "category": "label 0"
  }
]

# TODO verify IC50 < 400 nM strictly for this compound: `CC(C)C[C@H](NC(=O)N1CCCCCC1)C(=O)N[C@@H](Cc1ccc(CCC2CCCCC2)cc1)C(=O)NC(C)(C)C`
label 1
